# tested_target: AT1R (Homo sapiens)
# Sequence (P30556 whole entry): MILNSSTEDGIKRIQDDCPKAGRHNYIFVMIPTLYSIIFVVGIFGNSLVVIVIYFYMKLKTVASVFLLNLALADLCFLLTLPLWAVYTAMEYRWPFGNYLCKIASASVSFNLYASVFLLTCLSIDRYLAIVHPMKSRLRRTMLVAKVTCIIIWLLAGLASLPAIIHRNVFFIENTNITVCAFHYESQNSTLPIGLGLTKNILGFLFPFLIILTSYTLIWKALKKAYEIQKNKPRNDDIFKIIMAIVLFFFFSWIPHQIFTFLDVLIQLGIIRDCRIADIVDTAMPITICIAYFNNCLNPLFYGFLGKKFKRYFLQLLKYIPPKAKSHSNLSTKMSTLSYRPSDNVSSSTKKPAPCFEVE
# assay_details: β-arrestin2 recruitment BRET (β-arrestin2-RLucII/rGFP-CAAX) in HEK293 cells expressing AT1R
# Type: cell-based
# Design: expressed in transfected cells; host or cells: HEK293 cells, transient PEI transfection
# condition_parameters: HEK293/AT1R, β-arrestin2 BRET; response of the ligand at 10 μM, normalised to AngII
Peptide text beside a SMILES is read from it.
value_kind: Emax βarr2 (% AngII)
Just the number please, in % AngII, no unit attached.

query: # input compound: CC[C@H](C)[C@H](NC(=O)[C@H](Cc1ccc(O)cc1)NC(=O)[C@@H](NC(=O)[C@H](CCCNC(=N)N)NC(=O)[C@@H](N)CC(=O)O)C(C)C)C(=O)N[C@@H](Cc1c[nH]cn1)C(=O)N1CCC[C@H]1C(=O)N[C@@H](Cc1cscn1)C(=O)O ; wanted: its Emax βarr2 (% AngII)
result: 97

query: Lookup CC[C@H](C)[C@H](NC(=O)[C@H](Cc1ccc(O)cc1)NC(=O)[C@@H](NC(=O)[C@H](CCCNC(=N)N)NC(=O)[C@@H](N)CC(=O)O)C(C)C)C(=O)N[C@@H](Cc1c[nH]cn1)C(=O)N1CCC[C@H]1C(=O)N[C@@H](CCC(=O)O)C(=O)O [compound 6] (H-DRVYIHPE-OH; N-terminus assumed)
result: 63

query: Now try CCCC[C@H](NC(=O)[C@@H]1CCCN1C(=O)[C@H](Cc1c[nH]cn1)NC(=O)[C@@H](NC(=O)[C@H](Cc1ccc(O)cc1)NC(=O)[C@@H](NC(=O)[C@H](CCCNC(=N)N)NC(=O)[C@@H](N)CC(=O)O)C(C)C)[C@@H](C)CC)C(=O)O .
result: 92

query: Continue with CC[C@H](C)[C@H](NC(=O)[C@H](Cc1ccc(O)cc1)NC(=O)[C@@H](NC(=O)[C@H](CCCNC(=N)N)NC(=O)[C@@H](N)CC(=O)O)C(C)C)C(=O)N[C@@H](Cc1c[nH]cn1)C(=O)N1CCC[C@H]1C(=O)N[C@@H](CC1CCCCC1)C(=O)O
result: 95

query: Same question for CC[C@H](C)[C@H](NC(=O)[C@H](Cc1ccc(O)cc1)NC(=O)[C@@H](NC(=O)[C@H](CCCNC(=N)N)NC(=O)[C@@H](N)CC(=O)O)C(C)C)C(=O)N[C@@H](Cc1c[nH]cn1)C(=O)N1CCC[C@H]1C(=O)N[C@@H](Cc1ccccn1)C(=O)O please.
result: 101

Continuing:
query: Given the entry CC[C@H](C)[C@H](NC(=O)[C@H](Cc1ccc(O)cc1)NC(=O)[C@@H](NC(=O)[C@H](CCCNC(=N)N)NC(=O)[C@@H](N)CC(=O)O)C(C)C)C(=O)N[C@@H](Cc1c[nH]cn1)C(=O)N1CCC[C@H]1C(=O)N[C@H](C(=O)O)C(c1ccccc1)c1ccccc1 , report its measured Emax βarr2 (% AngII).
result: 109

query: Now give it for CC[C@H](C)[C@H](NC(=O)[C@H](Cc1ccc(O)cc1)NC(=O)[C@@H](NC(=O)[C@H](CCCNC(=N)N)NC(=O)[C@@H](N)CC(=O)O)C(C)C)C(=O)N[C@@H](Cc1c[nH]cn1)C(=O)N1CCC[C@H]1C(=O)N[C@@H](Cc1ccc(OCc2ccccc2)cc1)C(=O)O too.
result: 89
